# Test system: KRAS G12C-dependent Ba/F3 cells
# assay text: Ba/F3 proliferation assay, KRAS G12C
# Format: cell-based
# condition notes: Mus musculus, BaF3, 72 h, AlamarBlue
pIC50: −log10 of the molar value.
quantity: pIC50

1. [2H]C([2H])([2H])N1C[C@H](F)C[C@H]1[C@H](C)Oc1cc(N2CCN(C([2H])([2H])[2H])C3(CC3)C2)nc(-c2noc3c2CCC[C@@]32CCCc3sc(N)c(C#N)c32)n1 : 6.55
2. C[C@H](Oc1cc(N2CC3CCC(C2)N3)nc(-c2noc3c2CCC[C@@]32CCCc3sc(N)c(C#N)c32)n1)[C@@H]1CCCN1C : 6.28

A = C[C@H](Oc1cc(-n2cncn2)nc(-c2noc3c2CCC[C@@]32CCCc3sc(N)c(C#N)c32)n1)[C@@H]1CCCN1C
B = C[C@H](Oc1cc([C@H]2CCNC2)nc(-c2noc3c2CCC[C@@]32CCCc3sc(N)c(C#N)c32)n1)[C@@H]1CCCN1C
C = C[C@H](Oc1cc(N2C[C@@H](N(C)C)[C@@H](O)C2)nc(-c2noc3c2CCC[C@@]32CCCc3sc(N)c(C#N)c32)n1)[C@@H]1CCCN1C
D = [2H]C([2H])([2H])N1C[C@H](F)C[C@H]1[C@H](C)Oc1cc(N2CCNC3(CC3)C2)nc(-c2noc3c2CCC[C@@]32CCCc3sc(N)c(C#N)c32)n1
(Q) Order field: pIC50 | Direction: descending (largest first) Return value: ordered labels per request.
(A) A, D, B, C
(A: 7.60, D: 6.95, B: 6.43, C: 6.07)
